tgt: Voltage-dependent calcium channel gamma-2 subunit (Mus musculus) + Glutamate receptor 2 (Rattus norvegicus) (UniProt O88602+P19491)
Sequence (O88602 whole entry, looked up): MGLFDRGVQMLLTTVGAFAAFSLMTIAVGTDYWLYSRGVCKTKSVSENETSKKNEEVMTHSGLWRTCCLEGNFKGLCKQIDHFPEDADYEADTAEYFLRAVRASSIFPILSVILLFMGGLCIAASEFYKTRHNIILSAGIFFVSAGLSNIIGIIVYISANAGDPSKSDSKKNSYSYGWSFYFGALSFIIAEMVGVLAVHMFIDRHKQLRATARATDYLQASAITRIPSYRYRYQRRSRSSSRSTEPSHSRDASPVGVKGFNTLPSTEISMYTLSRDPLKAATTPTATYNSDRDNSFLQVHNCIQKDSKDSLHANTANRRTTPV
Sequence (P19491 whole entry, looked up): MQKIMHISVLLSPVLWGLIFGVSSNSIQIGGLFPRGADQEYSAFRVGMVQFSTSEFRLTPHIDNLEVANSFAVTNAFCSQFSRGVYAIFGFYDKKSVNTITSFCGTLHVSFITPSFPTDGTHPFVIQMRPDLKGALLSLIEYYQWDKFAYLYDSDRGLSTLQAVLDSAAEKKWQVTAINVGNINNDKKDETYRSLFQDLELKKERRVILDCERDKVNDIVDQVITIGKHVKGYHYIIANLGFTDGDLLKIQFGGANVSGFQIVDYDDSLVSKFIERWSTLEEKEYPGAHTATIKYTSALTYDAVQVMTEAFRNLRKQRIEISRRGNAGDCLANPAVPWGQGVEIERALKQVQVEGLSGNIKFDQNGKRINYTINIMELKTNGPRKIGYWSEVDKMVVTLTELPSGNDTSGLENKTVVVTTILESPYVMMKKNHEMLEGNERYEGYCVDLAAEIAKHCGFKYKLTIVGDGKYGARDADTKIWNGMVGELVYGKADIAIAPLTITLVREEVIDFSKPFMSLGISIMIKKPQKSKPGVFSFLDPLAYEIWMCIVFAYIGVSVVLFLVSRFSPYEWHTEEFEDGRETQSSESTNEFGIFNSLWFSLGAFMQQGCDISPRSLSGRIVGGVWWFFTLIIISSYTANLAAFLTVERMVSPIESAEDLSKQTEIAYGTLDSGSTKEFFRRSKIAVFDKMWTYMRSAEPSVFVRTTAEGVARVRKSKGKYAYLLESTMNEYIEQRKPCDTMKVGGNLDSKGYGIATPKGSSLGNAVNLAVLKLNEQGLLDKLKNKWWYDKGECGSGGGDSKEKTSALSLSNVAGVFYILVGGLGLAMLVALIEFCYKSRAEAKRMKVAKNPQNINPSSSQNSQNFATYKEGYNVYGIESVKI
assay: modulators of GluA2-stargazin AMPA receptor complexes, primary screen, cell-based, membrane potential dye (AID 1259245)
experimentalSetup: HEK293 GluA2+stargazin, membrane potential dye (FDSS), glutamate EC50, at 30 µM, hits were called plate by plate, in both directions
In all, about 40,000 compounds went through this assay and about 1,400 (3.5%) were called active.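 How the source made its calls: active means any of four per-well response measures lying three or more SD from its plate-wide compound average, in either direction; inactive means the rest, inconclusive results apart.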 Many of the other results were omitted from the sample, so actives are more common in it than they were.
The reply should name one outcome from active, inactive

Q. Which result was noted for this molecule in the test: Cn1nnc2c(N3CCN(C(=O)c4cc5ccccc5o4)CC3)ncnc21
A. inactive

Q. Which result was noted for this molecule in the test: CCCCc1ccc(-n2c(C)cn3c4c(=O)n(CC(=O)OC)c(=O)n(C)c4nc23)cc1
A. inactive

Q. Which result was noted for this molecule in the test: COc1ccc2nc(N(CCN3CCOCC3)C(=O)c3ccc([N+](=O)[O-])o3)sc2c1
A. active

Q. Which result was noted for this molecule in the test: COc1ccc2nc(N(CCN3CCOCC3)C(=O)c3ccccc3S(C)(=O)=O)sc2c1
A. inactive

Q. Which result was noted for this molecule in the test: COc1ccc2nc(N(CCN3CCOCC3)C(=O)c3cc4cc([N+](=O)[O-])ccc4s3)sc2c1
A. inactive
